Where do the numbers come from? From paper PMC11247503.

Protocol Details: Compound concentrations in plasma of mice after oral dose
Format: in vivo, mice (C57BL/6j)
Experimental Setup: female, C57BL/6j, mouse, single 10 mg/kg PO, plasma, read-out: tmax (time of maximum circulating level)
Observation Type: Tmax (h)
Reply numerically in h, unit not repeated.

Entry CCCCCCCCCCc1ccc(NC(=O)N2CCNCC2)cc1.Cl [11i] , Tmax reported as 4

* * *

Target System: mouse Spns2 (Mus musculus)
Construct: expressed in transfected cells; host or cells: HeLa cells (G418-resistant pools)
Sequence (Q91VM4 1-549): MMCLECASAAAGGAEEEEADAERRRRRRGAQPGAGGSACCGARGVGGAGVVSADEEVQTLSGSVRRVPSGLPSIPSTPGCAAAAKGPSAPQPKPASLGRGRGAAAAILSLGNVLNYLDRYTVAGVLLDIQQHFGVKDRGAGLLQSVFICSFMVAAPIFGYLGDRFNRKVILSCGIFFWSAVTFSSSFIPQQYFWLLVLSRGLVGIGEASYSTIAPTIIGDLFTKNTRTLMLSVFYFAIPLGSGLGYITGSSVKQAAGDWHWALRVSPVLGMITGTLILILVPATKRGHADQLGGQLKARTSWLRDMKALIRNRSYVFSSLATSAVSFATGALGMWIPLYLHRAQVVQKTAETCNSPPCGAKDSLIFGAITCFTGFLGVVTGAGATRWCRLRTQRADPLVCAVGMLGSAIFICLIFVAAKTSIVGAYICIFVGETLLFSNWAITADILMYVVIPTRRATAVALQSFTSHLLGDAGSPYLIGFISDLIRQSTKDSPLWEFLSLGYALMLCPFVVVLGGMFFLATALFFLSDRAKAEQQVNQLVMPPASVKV
Protocol Details: HeLa cell S1P release assay (Spns2 inhibition)
Type: cell-based
Experimental Setup: HeLa, 1 μM inhibitor; HeLa cells; S1P in media by LC-MS/MS; read-out: %Inhib. (Spns2 inhibition, percent decrease in S1P secretion relative to control)
Procedure: With a library of analogs of SLB1122168 containing phenylurea, phenylcarbamate, and benzamide as bioisostere of the benzoxazole, we investigated their potential in inhibiting S1P transport using a HeLa cell assay.[36]−[38],[43] […] Inhibition of S1P transport is determined by measuring the amount of S1P in the buffer using LC-MS. This assay was conducted as reported by Kharel et al.[43] Briefly, compounds were assessed in a HeLa cell assay at a 1 μM test concentration, unless noted otherwise. […]
Observation Type: inhibition at 1 µM

Take a look at these entries with their results.
• CCCCCCCCCCc1ccc(C(=O)N[C@@H]2CCNC2)cc1.Cl [(R)-4c] = 61 to 66%
• CCCCCCCCCCc1ccc(C(=O)N[C@H]2CCNC2)cc1.Cl [(S)-4d] = 61 to 66%
• CCCCCCCCCCc1ccc(NC(=O)N2CC3CCC(C2)N3)cc1 [11k] = 77%
• CCCCCCCCCCc1ccc(C(=O)N(C)[C@@H]2CCCNC2)cc1 [(R)-13c] = 51%
• CCCCCCCCCCc1ccc(C(=S)NCCCN)cc1 [15a] = 23%

Kindly note: mouse Spns2 (Mus musculus), CCCCCCCCCCc1ccc(-c2noc(CCCN)n2)cc1.Cl [SLF1081851] , inhibition at 1 µM value reported: 44%

Value (inhibition at 1 µM, mouse Spns2 (Mus musculus)) for record CCCCCCCCCCc1ccc(NC(=O)O[C@@H]2CCCNC2)cc1 [(R)-8d] = 45%

The reported mouse Spns2 (Mus musculus) inhibition at 1 µM of CCCCCCCCCCc1ccc(NC(=O)N2CCN[C@H](C)C2)cc1 [(R)-11l] is ≥ 80%

// assay mouse Spns2 (Mus musculus), entry CCCCCCCCCCc1ccc(NC(=O)N[C@@H]2CCNC2)cc1 [(R)-11c] , inhibition at 1 µM value = 49%
